experiment: Toxicity in human assessed as weight loss

entry-smiles: O=[N+]([O-])c1ccc(O)c([N+](=O)[O-])c1
LD: 0.8 to 3 g

====

test: Mitochondrial uncoupling activity in Arabidopsis root cells assessed as inhibition of clathrin-mediated endocytosis by measuring reduction of FM4-64 uptake; assay type: functional, mitochondria, Arabidopsis thaliana, Mitochondria
pIC50: −log10 of the molar value.

entry-smiles: O=[N+]([O-])c1ccc(NS(=O)(=O)c2ccc(Br)s2)cc1
pIC50: 5.30

====

experiment: Toxicity in dog; design: species or system Canis lupus familiaris; conditions: in vivo
experimental-endpoint: LD50 (mg/kg)

entry-smiles: O=[N+]([O-])c1ccc(O)c([N+](=O)[O-])c1
experimental-endpoint: LD50
reported: 30

====

Measured pKa, listed per entry for reference.
assay: Dissociation constant, pKa of compound

compound: CCCCOC(=O)c1ccccc1-c1c2cc(C)/c(=N\CC)cc-2oc2cc(NCC)c(C)cc12
pKa: 7.3
//
compound: O=[N+]([O-])c1cc(CCC[P+](c2ccccc2)(c2ccccc2)c2ccccc2)cc([N+](=O)[O-])c1O
pKa: 4.48
//
compound: CCCCN1CCCCC1C(=O)Nc1c(C)cccc1C (stereo not drawn)
pKa: 8.1
//
compound: CC(C)(C)c1cc(C=C(C#N)C#N)cc(C(C)(C)C)c1O
pKa: 6.7
//
compound: N#CC(C#N)=NNc1ccc(OC(F)(F)F)cc1
pKa: 6.2
//
compound: O=[N+]([O-])c1ccc(O)c([N+](=O)[O-])c1
pKa: 4.1
//
compound: CC(C)(C)c1cc(Cl)cc(C(=O)Nc2ccc([N+](=O)[O-])cc2Cl)c1O
pKa: 5.8

====

Measured pEC50, listed per entry for reference.
tested on: Liver; experiment: Mitochondrial uncoupling activity in mouse liver mitochondria assessed as effect on succinoxldase coupled phosphorylation; format: functional
pEC50: −log10 of the molar value.
experimental-endpoint: pEC50

compound: N#CC(C#N)=NNc1ccc(OC(F)(F)F)cc1
experimental-endpoint: pEC50
reported: 7.40

compound: N#CC(C#N)=NNc1cccc(Cl)c1 [CARBONYL CYANIDE M-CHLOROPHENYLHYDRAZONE]
experimental-endpoint: pEC50
reported: 7.00

====

test system: HCT-116; assay: Cytotoxicity against human HCT116 cells after 48 hrs by MTT assay; assay type: cell-based; settings: HCT-116, 48 h

compound: CC(C)(C)c1cc(C=C(C#N)C#N)cc(C(C)(C)C)c1O [TYRPHOSTIN A9]
IC50: > 200 nM

====

system: Hepatocyte; assay: Cytotoxicity against Sprague-Dawley rat hepatocytes after 24 hrs by MTT assay; format: cell-based

compound: CC(C)(C)c1cc(C=C(C#N)C#N)cc(C(C)(C)C)c1O [TYRPHOSTIN A9]
IC50: > 970 nM

====

test: Acute toxicity in C57BL/6J mouse administered via oral gavage; settings: in vivo

compound: CCOC(=O)C1=C(C)N=c2s/c(=C/c3cc(Br)c(O)c(Br)c3)c(=O)n2C1c1ccc(Cl)cc1 (stereo unspecified)
LD50: 12.7 mg/kg

====

assay: Uncoupling activity in rat mitochondria assessed as increase in oxygen consumption by mitochondrial respiration assay; type: functional
pEC50: −log10 of the molar value.

entry-smiles: CCCCOC(=O)c1ccccc1-c1c2cc(C)/c(=N\CC)cc-2oc2cc(NCC)c(C)cc12
pEC50: 6.00

Data origin: ChEMBL document CHEMBL4308823
